What follows is a collection of pIC50 values obtained with Factor D (Homo sapiens).
pIC50: −log10 of the molar value.

# annotated cases, reported pIC50 shown
COMPOUND	pIC50
CCOC(=O)NCc1cc2cc(COc3ccccc3CC(=O)O)cc(-c3cccc(CN)c3)c2o1 [Compound 25h]	> 6.00
CC(Oc1ccccc1CC(=O)O)c1cc(-c2cccc(CN)c2)c2occc2c1 (stereo not shown) [Compound 77e]	> 6.00
CCCCCCC(=O)NCc1ccc(CC(=O)O)c(OCc2cc(-c3cccc(CN)c3)c3occc3c2)c1 [Compound 26f]	> 6.00
NCc1nccc(-c2cc(COc3ccccc3CC(=O)O)cc3c(F)coc23)c1F [Compound 46d]	> 6.00
CC(=O)c1ccc(CC(=O)O)c(OCc2cc(-c3ccnc(CN)c3F)c3occ(C(F)(F)F)c3c2)c1 [Compound 13f]	> 6.00

input: Recorded pIC50 of CCNCc1cccc(-c2cc(COc3ccccc3CC(=O)O)cc3ccoc23)c1 [Compound 21c] , please.
output: > 6.00

input: # repeat for NC(CC(F)(F)F)c1cccc(-c2cc(COc3ccccc3CC(=O)O)cc3ccoc23)c1 (stereo not shown) [Compound 41e]
output: 5.00 to 6.00

input: # repeat for NC(CF)c1cccc(-c2cc(COc3cc(F)ccc3CC(=O)O)cc3ccoc23)c1 (single isomer, unassigned; (+)) [Compound 15f]
output: > 6.00

input: # repeat for COc1ccc(CC(=O)O)c(OCc2cc(-c3cccc(C(N)CF)c3)c3occc3c2)c1 (single isomer, unassigned; (+)) [Compound 14k]
output: > 6.00

input: # repeat for NCc1cccc(-c2cc(COc3ccc(F)cc3CC(=O)O)cc3cc(F)oc23)c1 [Compound 16f]
output: > 6.00

input: # repeat for CCC(N)c1cc(-c2cc(COc3ccccc3CC(=O)O)cc3ccoc23)cs1 (stereo not shown)
output: 5.00 to 6.00

input: # repeat for COCc1cc2cc(COc3cc(C(C)=O)ccc3CC(=O)O)cc(-c3cccc(CN)c3)c2o1 [Compound 12j]
output: > 6.00

input: # repeat for NCc1cccc(-c2cc(COc3ccccc3CC(=O)O)c(OCc3ccncc3)c3ccoc23)c1 [Compound 80g]
output: > 6.00

input: # repeat for CCOP(=O)(NCc1ccc(CC(=O)O)c(OCc2cc(-c3cccc(CN)c3)c3occc3c2)c1)OCC [Compound 32c]
output: > 6.00

input: # repeat for NCc1cccc(-c2cc(COc3cc(OC(F)(F)F)ccc3CC(=O)O)cc3ccoc23)c1 [Compound 10d]
output: > 6.00

input: # repeat for NCc1cccc(-c2cc(COc3cc(C(F)(F)F)ccc3CC(=O)O)cc3cc(F)oc23)c1 [Compound 53d]
output: > 6.00

input: # repeat for CC(=O)c1ccc(CC(=O)O)c(OCc2cc(-c3cccc(CN)c3)c3oc(F)cc3c2)c1 [Compound 64h]
output: > 6.00

input: # repeat for CC(C)Oc1c(COc2ccccc2CC(=O)O)cc(-c2cccc(CN)c2)c2occc12 [Compound 66f]
output: > 6.00

input: # repeat for CC(N)c1nc(-c2cc(COc3ccccc3CC(=O)O)cc3ccoc23)cs1 (stereo not shown)
output: 5.00 to 6.00

input: # repeat for COc1ccc(CC(=O)O)c(OCc2cc(-c3ccnc(CN)c3)c3occc3c2F)c1 [Compound 43d]
output: > 6.00

input: # repeat for CC(=O)c1ccc(CC(=O)O)c(OCc2cc(-c3cccc(CN)c3F)c3oc(F)cc3c2)c1 [Compound 76e]
output: > 6.00

input: # repeat for NCc1cc(-c2cc(COc3ccccc3CC(=O)O)cc3c(F)coc23)ccn1 [Compound 47c]
output: > 6.00

input: # repeat for Cn1cc(-c2c(COc3ccccc3CC(=O)O)cc(-c3cccc(CN)c3)c3occc23)cn1 [Compound 78e]
output: > 6.00

====

pIC50: −log10 of the molar value.
What follows is a collection of pIC50 values obtained with Factor D (Homo sapiens, UniProt P00746).
Sequence (P00746 26-253): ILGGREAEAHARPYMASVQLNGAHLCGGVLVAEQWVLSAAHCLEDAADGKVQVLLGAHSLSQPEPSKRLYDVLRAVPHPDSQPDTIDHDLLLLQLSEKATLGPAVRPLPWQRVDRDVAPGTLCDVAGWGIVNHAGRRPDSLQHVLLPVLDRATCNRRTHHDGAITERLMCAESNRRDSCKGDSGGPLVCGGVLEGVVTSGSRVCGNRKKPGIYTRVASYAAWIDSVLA

COMPOUND	EXPERIMENTAL SYSTEM	EXPERIMENTAL VALUE
CS(=O)(=O)NCc1ccc(CC(=O)O)c(OCc2cc(-c3cccc(CN)c3)c3occc3c2)c1 [Compound 33c]	Factor D (Homo sapiens, UniProt P00746)	> 6.00
NC(=O)c1cc(-c2cc(COc3ccccc3CC(=O)O)cc3ccoc23)cs1 [Compound 84c]	Factor D (Homo sapiens, UniProt P00746)	< 5.00
COCOc1c(COc2ccccc2CC(=O)O)cc(-c2cccc(CN)c2)c2occc12 [Compound 81h]	Factor D (Homo sapiens, UniProt P00746)	> 6.00

input: Please provide the recorded pIC50 for NCc1cccc(-c2cc(COc3cc(CN)ccc3CC(=O)O)cc3c(C(F)(F)F)coc23)c1 [Compound 31d] , tested on Factor D (Homo sapiens, UniProt P00746).
output: > 6.00

input: # repeat for CCOC(=O)NC(C)c1ccc(CC(=O)O)c(OCc2cc(-c3cccc(CN)c3)c3occc3c2)c1 (single isomer, unassigned; (-)) [Compound 55e]
output: > 6.00

input: # repeat for NCc1cc(-c2cc(COc3ccccc3CC(=O)O)cc3ccoc23)co1 [Compound 50e]
output: < 5.00

input: # repeat for NCc1ccn(-c2cc(COc3ccccc3CC(=O)O)cc3ccoc23)c1 [Compound 63f]
output: 5.00 to 6.00

input: # repeat for NCc1cccc(-c2cc(COc3ccccc3CC(=O)O)c(OCC(=O)O)c3ccoc23)c1 [Compound 65g]
output: > 6.00
